- method.description: Antiproliferative activity against human Bel7402 cells assessed as inhibition of cell proliferation incubated for 48 hrs by CCK8 assay
- Format: functional, cell-based
- stated.conditions: Bel-7402, 48 h
value.type: pIC50
On this scale, pIC50 is minus log10 of a concentration expressed in M (mol/L).

{"columns": ["substance.smiles", "pIC50"],
 "data": [
  ["Cc1ccc(/C=C/C(=O)c2ccc(OCc3cn([C@H]4CC(=O)N5C[C@@H]6CCCN7CCC[C@@H]([C@H]67)[C@H]5C4)nn3)cc2)cc1", 4.45],
  ["O=c1[nH]cc(F)c(=O)[nH]1", 4.70],
  ["O=C(/C=C/c1cccc(C(F)(F)F)c1)c1ccc(OCc2cn([C@H]3CC(=O)N4C[C@@H]5CCCN6CCC[C@@H]([C@H]56)[C@H]4C3)nn2)cc1O", 4.92]
]}

get_value(item= O=C(/C=C/c1cccc(Cl)c1)c1ccc(OCc2cn([C@H]3CC(=O)N4C[C@@H]5CCCN6CCC[C@@H]([C@H]56)[C@H]4C3)nn2)cc1O , readout=pIC50) returns 5.25

Value of pIC50 reported for the compound O=C(/C=C/c1ccc(Cl)cc1)c1ccc(OCc2cn([C@H]3CC(=O)N4C[C@@H]5CCCN6CCC[C@@H]([C@H]56)[C@H]4C3)nn2)cc1O is 4.83

Data provenance is ChEMBL document CHEMBL3425481.
